Molecular target: T1, CTNI quality control recombinant protein (PK2-CTNI-1, 170120, produced by the applicant) (human, UniProt P19429 2-210, limits assumed)
T1 construct: also called cardiac troponin I
T1 sequence (P19429 2-210 limits assumed): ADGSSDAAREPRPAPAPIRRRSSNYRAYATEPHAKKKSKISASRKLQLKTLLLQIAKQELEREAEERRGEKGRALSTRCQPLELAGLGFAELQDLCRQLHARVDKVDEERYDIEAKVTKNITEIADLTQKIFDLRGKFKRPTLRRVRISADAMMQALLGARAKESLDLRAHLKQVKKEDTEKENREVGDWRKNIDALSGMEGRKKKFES
Assay: AMC sensor kinetics, antibody captured, cTnI analyte
binders and their reported kon
Field format: number, assumed M⁻¹ s⁻¹, no unit text.

Take a look at these entries with their results.
binder	display-unit	kon
Mutation 1-43 (antibody, V domains shown, built as for Mutation 1) VH: EVQLQQSGAELVKPGASVKLSCTASGFNLKDYYMHWMKQRTEQGLDWIGRIDPEDAETRYAPEFQGKATITADTSSNTAYLQLSTLTSEDTAVYYCARYYSSYVPFVYWGQGTLVTASA VL: DVVMTQTPLSLSVSLGDQASISCRSSQSIIYSNRHTYLHWYLQKPGQSPKLLIFQVSNRFSGVPDRFSGSGSGTDFTLKINRVEAEDLGVYFCSQSTHIPYTFGSGTKLEIKR	M⁻¹ s⁻¹	119000
Mutation 1-16 (antibody, V domains shown, built as for Mutation 1) VH: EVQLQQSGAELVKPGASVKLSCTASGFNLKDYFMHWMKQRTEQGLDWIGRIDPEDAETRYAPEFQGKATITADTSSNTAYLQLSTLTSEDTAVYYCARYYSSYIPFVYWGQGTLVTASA VL: DVVMTQTPLSLSVSLGDQASISCRSSQSLLYSNRHTYLHWYLQKPGQSPKLLIFQISNRFSGVPDRFSGSGSGTDFTLKINRVEAEDLGVYFCSQSTHLPYTFGSGTKLEIKR	M⁻¹ s⁻¹	152000
Mutation 1-29 (antibody, V domains shown, built as for Mutation 1) VH: EVQLQQSGAELVKPGASVKLSCTASGFNLKDYYMHWMKQRTEQGLDWIGRIDPEDGETKYAPEFQGKATITADTSSNTAYLQLSTLTSEDTAVYYCARYYSSYVPFVYWGQGTLVTASA VL: DVVMTQTPLSLSVSLGDQASISCRSSQSLLYSNRHTYLHWYLQKPGQSPKLLIFQVSNRFSGVPDRFSGSGSGTDFTLKINRVEAEDLGVYFCSQSTHLPYTFGSGTKLEIKR	M⁻¹ s⁻¹	165000

[ask] Which value of kon has been reported for Mutation 1-2 (antibody, V domains shown, built as for Mutation 1) VH: EVQLQQSGAELVKPGASVKLSCTASGFNIKDYFMHWMKQRTEQGLDWIGRIDPEDGETRYAPEFQGKATITADTSSNTAYLQLSTLTSEDTAVYYCARYYSSYVPFVYWGQGTLVTASA VL: DVVMTQTPLSLSVSLGDQASISCRSSQSLIYSNRHTYLHWYLQKPGQSPKLLIFQVSNRFSGVPDRFSGSGSGTDFTLKINRVEAEDLGVYFCSQSTHIPFTFGSGTKLEIKR in the records?
[reply] 430000

[ask] Same lookup for Mutation 1-27 (antibody, V domains shown, built as for Mutation 1) VH: EVQLQQSGAELVKPGASVKLSCTASGFNIKDYYMHWMKQRTEQGLDWIGRIDPEDAETRYAPEFQGKATITADTSSNTAYLQLSTLTSEDTAVYYCARYYSSYIPFVYWGQGTLVTASA VL: DVVMTQTPLSLSVSLGDQASISCRSSQSLIYSNRHTYLHWYLQKPGQSPKLLIFQISNRFSGVPDRFSGSGSGTDFTLKINRVEAEDLGVYFCSQSTHIPYTFGSGTKLEIKR , please.
[reply] 993000
